These measurements were taken from ChEMBL document CHEMBL1155323.

- Tested on: Staphylococcus aureus
- Assay text: Antibacterial activity against Staphylococcus aureus ATCC 6538P at 100 ug/ml after 24 hrs by agar cup plate method
- Type: functional
- Study conditions: read-out: IZ
Below is a list of entries, each paired with its recorded zone of inhibition at 100 µg/mL value.

| Mol | System | Output unit | zone of inhibition at 100 µg/mL |
| --- | --- | --- | --- |
| COc1ccc(Cl)cc1-n1ncc(-c2nnc(-c3ccc(C)c([N+](=O)[O-])c3)o2)c1C | Staphylococcus aureus | mm | 14 |
| COc1ccc(Cl)cc1-n1ncc(-c2nnc(-c3ccccc3)o2)c1C | Staphylococcus aureus | mm | 15 |
| CC1(C)S[C@@H]2[C@H](NC(=O)[C@H](N)c3ccccc3)C(=O)N2[C@H]1C(=O)O | Staphylococcus aureus | mm | 31 |
| COc1ccc(Cl)cc1-n1ncc(-c2nnc(-c3ccc(Cl)cc3)o2)c1C | Staphylococcus aureus | mm | 18 |
| COc1ccc(Cl)cc1-n1ncc(-c2nnc(-c3cc(Cl)cc(Cl)c3)o2)c1C | Staphylococcus aureus | mm | 13 |
| COc1ccc(Cl)cc1-n1ncc(-c2nnc(-c3ccc(C)c(Br)c3)o2)c1C | Staphylococcus aureus | mm | 20 |
| COc1ccc(Cl)cc1-n1ncc(-c2nnc(-c3ccc(Br)c(C)c3)o2)c1C | Staphylococcus aureus | mm | 15 |
| COc1ccc(Cl)cc1-n1ncc(-c2nnc(-c3ccc(Br)cc3)o2)c1C | Staphylococcus aureus | mm | 19 |
| COc1ccc(Cl)cc1-n1ncc(-c2nnc(-c3ccc(F)cc3)o2)c1C | Staphylococcus aureus | mm | 20 |
| COc1ccc(Cl)cc1-n1ncc(-c2nnc(-c3ccc(Cl)c(Cl)c3)o2)c1C | Staphylococcus aureus | mm | 20 |
| COc1ccc(Cl)cc1-n1ncc(-c2nnc(-c3cccc(F)c3)o2)c1C | Staphylococcus aureus | mm | 27 |
